Data provenance: PubChem BioAssay

tested on: PRMT1 (protein arginine N-methyltransferase 1); test: PRMT1 binders on small-molecule microarrays, primary screen, biochemical, small-molecule microarray, 635 nm fluorescence (AID 1088); details: small-molecule microarray binding, higher = more signal;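 further: binding of Prmt1 protein to compounds spotted on small-molecule microarray slides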
Label scheme for composite z-score: bin 0 (below 0.05), bin 1 (0.05 to below 1), bin 2 (1 or more)

Example results:
CCOC(=O)CCN1C(=O)[C@H]2[C@H]3[C@H](O)[C@H](O)CC(=NNC(=O)OCC)[C@@H]3CC[C@H]2C1=O :: bin 1
CCN1C(=O)[C@H]2[C@H]3[C@H](O)[C@H](O)CC(=NNC(=O)OCc4ccc(OC)cc4)[C@H]3CC[C@H]2C1=O :: bin 1
CO[C@H]1COC(=O)[C@H](C)NC(=O)CC=C[C@@H](C)[C@H](OC)COC(=O)CC=C[C@@H]1C :: bin 2
CCCNC(=O)OC[C@H]1O[C@H](CCON=C(C)CCN2CCc3nc(-c4ccccc4)c(-c4ccccc4)cc3C2)C=C[C@@H]1Oc1ccc(OC)cc1 :: bin 1
CO[C@@H]1COC(=O)CC=C[C@H](C)COC(=O)[C@H](C)NC(=O)CC=C[C@H]1C :: bin 2

Incoming: Lab note: which band did COc1ccc(COC(=O)NN=C2C[C@@H](O)[C@@H](O)[C@@H]3[C@@H]4C(=O)N(C(C)(C)C)C(=O)[C@@H]4CC[C@H]23)cc1 land in?
Outgoing: bin 2

Incoming: Lab note: which band did CCOC(=O)NN=C1C[C@@H](O)[C@@H](O)[C@@H]2[C@@H]3C(=O)N(Cc4ccccc4)C(=O)[C@@H]3CC[C@@H]12 land in?
Outgoing: bin 1

Incoming: Lab note: which band did CC(C)=CCCC(C)=CCON=C1C[C@@H](O)[C@@H](O)[C@@H]2[C@@H]3C(=O)N([C@@H](C)c4ccccc4)C(=O)[C@@H]3CC[C@H]12 land in?
Outgoing: bin 2

Incoming: Lab note: which band did CC(C)=NOCc1ccc(-c2cn([C@@H]3COC[C@H]3O)nn2)cc1 land in?
Outgoing: bin 0

Incoming: Lab note: which band did CCOC(=O)[C@H](CC(C)C)NC(=O)CCC1CC(OC(=O)NCc2cccc3ccccc23)CC2(CCCC(COC(=O)NCc3ccccc3)O2)O1 (stereo not given in full) land in?
Outgoing: bin 0

Incoming: Lab note: which band did C=C(C)C(=O)OC[C@@H]1CN2[C@@H](CC[C@@H](C)[C@@H]2c2ccc(Br)cc2)C(=O)O1 land in?
Outgoing: bin 1

###

composite z-score values, listed per item
test: binders of probe aFGF10 on microarray, primary screen, stem cell growth factor project, biochemical, small-molecule microarray, fluorescence 635/667 (AID 1071); conditions: higher = more signal;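 further: score merges 667 nm spot intensity and signal to noise from triplicate slides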

CCOC(=O)[C@H](CC(C)C)NC(=O)CCC1CC(OC(=O)NCc2cccc3ccccc23)CC2(CCCC(COC(=O)NCc3ccccc3)O2)O1 (stereo partly drawn) :: 0.129
CCN1C(=O)[C@H]2[C@H]3[C@H](O)[C@H](O)CC(=NNC(=O)OCc4ccc(OC)cc4)[C@H]3CC[C@H]2C1=O :: 0.284

Proceeding to the next compound to report its composite z-score.
Incoming: For the compound shown here, CC(C)=CCCC(C)=CCON=C1C[C@@H](O)[C@@H](O)[C@@H]2[C@@H]3C(=O)N([C@@H](C)c4ccccc4)C(=O)[C@@H]3CC[C@H]12 , give the reported composite z-score.
Outgoing: 0.573
